Biological target: RePC (Rhizobium etli pyruvate carboxylase) (Rhizobium etli)
Sequence (Q2K340 1-1154): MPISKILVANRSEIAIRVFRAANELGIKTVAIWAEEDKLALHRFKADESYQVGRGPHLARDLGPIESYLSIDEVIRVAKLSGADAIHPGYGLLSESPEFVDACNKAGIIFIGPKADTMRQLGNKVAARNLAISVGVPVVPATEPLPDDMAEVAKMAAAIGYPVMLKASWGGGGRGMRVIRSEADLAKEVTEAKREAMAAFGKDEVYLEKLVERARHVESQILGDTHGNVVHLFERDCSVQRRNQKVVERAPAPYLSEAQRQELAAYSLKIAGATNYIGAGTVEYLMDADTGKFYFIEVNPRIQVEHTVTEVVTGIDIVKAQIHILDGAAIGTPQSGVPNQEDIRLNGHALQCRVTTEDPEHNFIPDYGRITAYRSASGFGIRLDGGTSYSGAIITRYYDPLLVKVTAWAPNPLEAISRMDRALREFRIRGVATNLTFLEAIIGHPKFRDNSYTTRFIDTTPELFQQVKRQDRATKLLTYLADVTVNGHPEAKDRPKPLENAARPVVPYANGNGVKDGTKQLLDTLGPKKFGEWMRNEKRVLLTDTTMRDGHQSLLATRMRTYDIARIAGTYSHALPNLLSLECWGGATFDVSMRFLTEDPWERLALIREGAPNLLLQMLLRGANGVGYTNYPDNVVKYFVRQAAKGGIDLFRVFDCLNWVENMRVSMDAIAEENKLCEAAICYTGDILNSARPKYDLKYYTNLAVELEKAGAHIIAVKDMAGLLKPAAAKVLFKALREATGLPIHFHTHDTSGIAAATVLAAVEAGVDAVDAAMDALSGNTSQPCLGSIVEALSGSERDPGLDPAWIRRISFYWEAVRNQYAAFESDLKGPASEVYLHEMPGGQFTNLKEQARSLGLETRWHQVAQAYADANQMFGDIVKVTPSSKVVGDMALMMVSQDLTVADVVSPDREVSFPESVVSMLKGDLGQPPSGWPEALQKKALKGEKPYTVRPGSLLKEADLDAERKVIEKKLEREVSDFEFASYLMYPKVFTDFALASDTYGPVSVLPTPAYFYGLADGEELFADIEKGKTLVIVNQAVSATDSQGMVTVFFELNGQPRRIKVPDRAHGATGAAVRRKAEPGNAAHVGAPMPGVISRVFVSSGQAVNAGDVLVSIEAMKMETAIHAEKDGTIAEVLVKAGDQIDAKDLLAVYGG
Assay: malate dehydrogenase-coupled pyruvate carboxylation assay
observable: EC50

Query: # return recorded EC50 for entry `CC(=O)SCCNC(=O)CCNC(=O)[C@H](O)C(C)(C)COP(=O)(O)OP(=O)(O)OC[C@H]1O[C@@H](n2cnc3c(N)ncnc32)[C@H](O)[C@@H]1OP(=O)(O)O`
Reply: 7.3 µM

The origin of these recorded values is paper PMC4238798.
